These entries and their values trace back to patent US20180148504A1.

Each item that follows carries a reported Average of S/B.
- assay_system: T1, recombinant purified FRα (ECL assay calibrator) (human, UniProt P15328 25-234)
- T1 construct: Calibrator of the ECL sandwich assays; also called FRα calibrator; FRα standard
- T1 sequence (P15328 25-234 limits assumed): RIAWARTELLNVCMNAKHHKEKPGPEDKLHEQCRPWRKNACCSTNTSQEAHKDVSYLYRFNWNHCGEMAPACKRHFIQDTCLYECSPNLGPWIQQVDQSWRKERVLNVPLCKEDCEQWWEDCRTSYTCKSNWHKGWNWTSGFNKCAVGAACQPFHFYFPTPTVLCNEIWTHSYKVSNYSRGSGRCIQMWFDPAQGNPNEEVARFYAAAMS
- procedure_details: ECL sandwich on FRα, signal to background; capture 6A2.G7; binder = detection Ab
In your answer, state the number alone without any accompanying words.

Example binders with recorded Average of S/B:
binder: Monoclonal antibody 6A2.G7 (antibody, mouse IgG1, V domains shown, Murine IgG1 kappa from hybridoma; also called ATCC PTA-123093) VH: GADLVKPGASVKMSCKASGYTFSRYNMHWVKQTPGQGLEWIGTIYPGNGDTSYNEKFKGKATLTADKSSSIVYMQVSSLTSEASAVYYCARDYGSRYALDYWGQGTSVTVSS VL: SSLSASLGDRVTISCRASQDISNYLNWYQQKPDGTVKLLIYYTSRLHSGVPSRFSGSGSGTDYSLTISNLEQEDIATYFCQQGNTLPYTFGGGTKLEIK
Average of S/B: 1
//
binder: Monoclonal antibody 24H8.D3 (antibody, mouse IgG1, V domains shown, Biotin-conjugated when used as capture antibody in the ECL assay; also called ATCC PTA-123090) VH: QVQLKESGPGLVAPSQSLSITCTVSGFSLTSYGVSWVRQPPGKGLEWLGVIWGDGSTNYHSTLISRLSISKDNSKSQVFLKLNSLQTDDTATYYCAKPHPAATGAMDYWGQGTSVTVSS VL: DIQMTQTTSSLSASLGDRVTISCRASQDISNHLNWYQQKPDGTIKLLIYYTSKLHSGVPSRFSGSGSGTDYSLTISNLEQEDIATYFCQQGNTLWTFGGGTKLEIK
Average of S/B: 38
//
binder: Monoclonal antibody 26A9.C4 (antibody, mouse IgG1, V domains shown, Murine IgG1 kappa from hybridoma; also called ATCC PTA-123092) VH: SGARELVKPGASVKLSCKTSGFTFSSSFISWLKQKPGQSLEWIAWIYGGNGGTSYNQNFTGKAQLTVDTSSSTAYMQFSSLTTEDSAVYYCASETYGNYWYFDVWGAGTTVTVSS VL: QSPASLSASVGDTVTITCRASGNIHNYLAWYQQKQGKSPQLLVYNAKTLADGVPSRFSGSGSGTQYSLKINSLQPEDFGNYYCQHFWSTPYTFGGGTKLEIK
Average of S/B: 6

We next turn to a different binder, shown below.
Lookup: Find the recorded Average of S/B belonging to Monoclonal antibody 19D4.B7 (antibody, mouse IgG2a, V domains shown, SULFO-TAG conjugated when used as detection antibody in the ECL assay; also called ATCC PTA-11884) VH: GARELVKPGASVKLSCTASGFNIKHPYMHWVKQRPDQGLEWIGRIDPANGNTKYDPKFQGKATITADTSSNTAYLQLSSLTSEDTAVYYCGREEVADYTMDYWGQGTSVTVSS VL: PASLAVSLGQRATISCRASESVDTYGNNFIHWYQQKPGQPPKLLIYLASNLESGVPARFSGSGSRTDFTLTIDPVEADDAATYYCQQNNGDPWTFGGGTKLEIKR and report it.
Found: 82
